Biological target: rNPFF-2 (Rattus norvegicus)
Construct: expressed in transfected cells
Assay: Radioligand binding assay, competitive displacement of [125I]1DMeNPFF at cloned NPFF receptors
Settings: cloned rat receptor
Quantity: Ki (nM)
Only the number, expressed in nM, is required.

Completed entries (count: 3):
Smiles Repr: N=C(N)NCCC[C@H](NS(=O)(=O)c1cccc([N+](=O)[O-])c1)C(=O)N[C@@H](Cc1ccccc1)C(N)=O
U: nM
Number: 1250
--
Smiles Repr: N=C(N)NCCC[C@H](NS(=O)(=O)c1c(F)c(F)c(F)c(F)c1F)C(=O)N[C@@H](Cc1ccccc1)C(N)=O
U: nM
Number: 5400
--
Smiles Repr: N#Cc1cccc(S(=O)(=O)N[C@@H](CCCNC(=N)N)C(=O)N[C@@H](Cc2ccccc2)C(N)=O)c1
U: nM
Number: 9920

State, in one line, measured Ki of `N=C(N)NCCC[C@H](NS(=O)(=O)c1ccc(F)cc1)C(=O)N[C@@H](Cc1ccccc1)C(N)=O`
1370

State, in one line, measured Ki of `N=C(N)NCCC[C@H](NS(=O)(=O)c1ccc(F)c(Cl)c1)C(=O)N[C@@H](Cc1ccccc1)C(N)=O`
3560

State, in one line, measured Ki of `N=C(N)NCCC[C@H](NS(=O)(=O)c1ccccc1)C(=O)N[C@@H](Cc1ccccc1)C(N)=O`
4410

State, in one line, measured Ki of `N=C(N)NCCC[C@H](NS(=O)(=O)c1ccc(Cl)cc1)C(=O)N[C@@H](Cc1ccccc1)C(N)=O`
1010

State, in one line, measured Ki of `N=C(N)NCCC[C@@H](NS(=O)(=O)c1cccc2ccccc12)C(=O)N[C@@H](Cc1ccccc1)C(N)=O`
2860

State, in one line, measured Ki of `COc1ccc(S(=O)(=O)N[C@@H](CCCNC(=N)N)C(=O)N[C@@H](Cc2ccccc2)C(N)=O)cc1`
1090

State, in one line, measured Ki of `N=C(N)NCCC[C@H](NS(=O)(=O)c1ccc(C(F)(F)F)cc1[N+](=O)[O-])C(=O)N[C@@H](Cc1ccccc1)C(N)=O`
4430

State, in one line, measured Ki of `N=C(N)NCCC[C@H](NS(=O)(=O)c1ccc(Cl)c([N+](=O)[O-])c1)C(=O)N[C@@H](Cc1ccccc1)C(N)=O`
2090

State, in one line, measured Ki of `N=C(N)NCCC[C@H](NS(=O)(=O)c1ccc(I)cc1)C(=O)N[C@@H](Cc1ccccc1)C(N)=O`
2920

---

Biological target: rNPFF-2 (Rattus norvegicus)
Construct: expressed in transfected cells
Experiment: Functional activity (EC50 and intrinsic activity relative to NPFF)
Format: cell-based
Conditions: tested 0.001 nM to 3600 nM; read-out: Functional Activity rNPFF-2 EC50
Recorded EC50, one value per entry.
Only the number, expressed in nM, is required.

State, in one line, measured EC50 of N=C(N)NCCC[C@H](NS(=O)(=O)c1ccc([N+](=O)[O-])cc1)C(=O)N[C@@H](Cc1ccccc1)C(N)=O [Compound 1003]
1870

---

Biological target: rNPFF-2 (Rattus norvegicus)
Construct: expressed in transfected cells
Assay: Functional activity (EC50 and intrinsic activity relative to NPFF)
Format: cell-based
Details: tested 0.001 nM to 3600 nM; read-out: Functional Activity rNPFF-2 EC50
Quantity: pEC50
Keep it numeric: pEC50 is minus log10 of the concentration in mol/L.

Completed entries (count: 3):
Smiles Repr: N=C(N)NCCC[C@H](NS(=O)(=O)c1ccc(Cl)cc1)C(=O)N[C@@H](Cc1ccccc1)C(N)=O
pEC50: 5.43
--
Smiles Repr: N=C(N)NCCC[C@H](NS(=O)(=O)c1ccc(C(F)(F)F)cc1[N+](=O)[O-])C(=O)N[C@@H](Cc1ccccc1)C(N)=O
pEC50: 5.25
--
Smiles Repr: N=C(N)NCCC[C@H](NS(=O)(=O)c1ccccc1)C(=O)N[C@@H](Cc1ccccc1)C(N)=O
pEC50: 5.25

Proceed to the following item.
State, in one line, measured pEC50 of `N=C(N)NCCC[C@H](NS(=O)(=O)c1ccc(Cl)cc1Cl)C(=O)N[C@@H](Cc1ccccc1)C(N)=O`
5.53

---

Recorded log10(EC50), one value per entry.
Molecular target: rNPFF-1 (Rattus norvegicus)
Assay: Functional activity (EC50 and intrinsic activity relative to NPFF)
Conditions: tested 0.001 nM to 3600 nM
// do not treat as linear: log10 of EC50, unit nM

Molecule: COc1ccc(S(=O)(=O)N[C@@H](CCCNC(=N)N)C(=O)N[C@@H](Cc2ccccc2)C(N)=O)cc1OC [Compound 1015]
System Name: rNPFF-1 (Rattus norvegicus)
log10(EC50): 2.15
//
Molecule: N=C(N)NCCC[C@H](NS(=O)(=O)c1cccc2ccccc12)C(=O)N[C@@H](Cc1ccccc1)C(N)=O [Compound 1001]
System Name: rNPFF-1 (Rattus norvegicus)
log10(EC50): 1.58
//
Molecule: N#Cc1ccccc1S(=O)(=O)N[C@@H](CCCNC(=N)N)C(=O)N[C@@H](Cc1ccccc1)C(N)=O [Compound 1027]
System Name: rNPFF-1 (Rattus norvegicus)
log10(EC50): 2.26
//
Molecule: N=C(N)NCCC[C@H](NS(=O)(=O)c1ccc(Cl)cc1Cl)C(=O)N[C@@H](Cc1ccccc1)C(N)=O [Compound 1010]
System Name: rNPFF-1 (Rattus norvegicus)
log10(EC50): 2.77
//
Molecule: N=C(N)NCCC[C@H](NS(=O)(=O)c1ccc(F)c(Cl)c1)C(=O)N[C@@H](Cc1ccccc1)C(N)=O [Compound 1017]
System Name: rNPFF-1 (Rattus norvegicus)
log10(EC50): 2.58

Proceed to the following item.
State, in one line, measured log10(EC50) of N=C(N)NCCC[C@H](NS(=O)(=O)c1c(F)c(F)c(F)c(F)c1F)C(=O)N[C@@H](Cc1ccccc1)C(N)=O [Compound 1024]
2.86

---

Recorded Functional Activity rNPFF-1 I.A. %, one value per entry.
Target: rNPFF-1 (Rattus norvegicus, UniProt Q9EP86)
Construct: expressed in transfected cells
Sequence (Q9EP86 whole entry): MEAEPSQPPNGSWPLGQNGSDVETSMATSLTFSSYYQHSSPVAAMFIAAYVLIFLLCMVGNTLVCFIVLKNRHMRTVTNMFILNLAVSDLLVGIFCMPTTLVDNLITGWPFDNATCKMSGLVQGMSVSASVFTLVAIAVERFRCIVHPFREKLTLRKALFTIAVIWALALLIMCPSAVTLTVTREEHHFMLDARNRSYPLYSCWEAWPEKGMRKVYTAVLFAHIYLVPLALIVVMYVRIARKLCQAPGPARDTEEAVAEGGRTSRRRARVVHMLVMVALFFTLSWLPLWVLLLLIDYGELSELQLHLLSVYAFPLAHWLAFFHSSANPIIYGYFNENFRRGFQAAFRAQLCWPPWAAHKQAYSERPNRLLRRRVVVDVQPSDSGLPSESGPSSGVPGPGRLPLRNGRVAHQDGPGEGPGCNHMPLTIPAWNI
Assay: Functional activity (EC50 and intrinsic activity relative to NPFF)
Assay type: cell-based
Conditions: intrinsic activity as percentage of maximal response by NPFF
Only the number, expressed in %, is required.

Smiles Repr: N=C(N)NCCC[C@H](NS(=O)(=O)c1ccc(F)cc1)C(=O)N[C@@H](Cc1ccccc1)C(N)=O
Functional Activity rNPFF-1 I.A. % [%]: 71

Proceed to the following item.
State, in one line, measured Functional Activity rNPFF-1 I.A. % of `N=C(N)NCCC[C@H](NS(=O)(=O)c1ccc(C(F)(F)F)cc1[N+](=O)[O-])C(=O)N[C@@H](Cc1ccccc1)C(N)=O`
21

---

Target: rNPFF-1 (Rattus norvegicus, UniProt Q9EP86)
Construct: expressed in transfected cells
Experiment: Radioligand binding assay, competitive displacement of [125I]1DMeNPFF at cloned NPFF receptors
Settings: cloned rat receptor
Recorded Ki, one value per entry.
Only the number, expressed in nM, is required.

Compound: N=C(N)NCCC[C@H](NS(=O)(=O)c1c(Cl)cccc1Cl)C(=O)N[C@@H](Cc1ccccc1)C(N)=O
Ki / nM: 815

State, in one line, measured Ki of `N=C(N)NCCC[C@H](NS(=O)(=O)c1ccc2ccccc2c1)C(=O)N[C@H](Cc1ccccc1)C(N)=O`
399

State, in one line, measured Ki of `N=C(N)NCCC[C@@H](NS(=O)(=O)c1ccc(F)cc1)C(=O)N[C@@H](Cc1ccccc1)C(N)=O`
1280

State, in one line, measured Ki of `N=C(N)NCCC[C@H](NS(=O)(=O)c1ccc(I)cc1)C(=O)N[C@@H](Cc1ccccc1)C(N)=O`
1430

State, in one line, measured Ki of `N=C(N)NCCC[C@H](NS(=O)(=O)c1ccc(F)cc1)C(=O)N[C@@H](Cc1ccccc1)C(N)=O`
150

State, in one line, measured Ki of `N=C(N)NCCC[C@H](NS(=O)(=O)c1c(F)cccc1F)C(=O)N[C@@H](Cc1ccccc1)C(N)=O`
173

State, in one line, measured Ki of `N=C(N)NCCC[C@H](NS(=O)(=O)c1ccc(F)c(Cl)c1)C(=O)N[C@@H](Cc1ccccc1)C(N)=O`
1140

State, in one line, measured Ki of CN(C)c1cccc2c(S(=O)(=O)N[C@@H](CCCN=C(N)N)C(=O)N[C@@H](Cc3ccccc3)C(N)=O)cccc12 [dansyl-RFamide, reference compound]
88

---

Biological target: rNPFF-2 (Rattus norvegicus, UniProt Q9EQD2)
Construct: expressed in transfected cells
Sequence (Q9EQD2 whole entry): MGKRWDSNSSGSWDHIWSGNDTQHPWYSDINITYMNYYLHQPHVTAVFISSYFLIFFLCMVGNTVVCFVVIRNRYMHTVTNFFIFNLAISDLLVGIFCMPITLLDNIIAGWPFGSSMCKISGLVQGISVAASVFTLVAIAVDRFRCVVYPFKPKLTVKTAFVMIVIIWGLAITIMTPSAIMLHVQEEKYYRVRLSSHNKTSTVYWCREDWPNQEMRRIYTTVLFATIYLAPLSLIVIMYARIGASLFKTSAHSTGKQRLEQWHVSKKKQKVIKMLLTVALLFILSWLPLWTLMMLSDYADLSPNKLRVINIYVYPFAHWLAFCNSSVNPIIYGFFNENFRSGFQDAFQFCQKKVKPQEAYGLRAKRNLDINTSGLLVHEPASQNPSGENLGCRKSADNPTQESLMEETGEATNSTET
Experiment: Functional activity (EC50 and intrinsic activity relative to NPFF)
Type: cell-based
Conditions: intrinsic activity as percentage of maximal response by NPFF
Quantity: Functional Activity rNPFF-2 I.A. % (%)
Only the number, expressed in %, is required.

Completed entries (count: 3):
Molecule: N=C(N)NCCC[C@@H](NS(=O)(=O)c1ccccc1Br)C(=O)N[C@@H](Cc1ccccc1)C(N)=O [Compound 1030]
U: %
Number: 71

Molecule: N=C(N)NCCC[C@H](NS(=O)(=O)c1cccc2ccccc12)C(=O)N[C@@H](Cc1ccccc1)C(N)=O [Compound 1001]
U: %
Number: 81

Molecule: N=C(N)NCCC[C@H](NS(=O)(=O)c1ccc([N+](=O)[O-])cc1)C(=O)N[C@@H](Cc1ccccc1)C(N)=O [Compound 1003]
U: %
Number: 44

State, in one line, measured Functional Activity rNPFF-2 I.A. % of N=C(N)NCCC[C@H](NS(=O)(=O)c1ccc(F)c(Cl)c1)C(=O)N[C@@H](Cc1ccccc1)C(N)=O [Compound 1017]
45

State, in one line, measured Functional Activity rNPFF-2 I.A. % of N=C(N)NCCC[C@H](NS(=O)(=O)c1ccc(F)cc1)C(=O)N[C@H](Cc1ccccc1)C(N)=O [Compound 1033]
57

State, in one line, measured Functional Activity rNPFF-2 I.A. % of COc1ccc(S(=O)(=O)N[C@@H](CCCNC(=N)N)C(=O)N[C@@H](Cc2ccccc2)C(N)=O)cc1OC [Compound 1015]
74

State, in one line, measured Functional Activity rNPFF-2 I.A. % of N=C(N)NCCC[C@H](NS(=O)(=O)c1c(F)cccc1F)C(=O)N[C@H](Cc1ccccc1)C(N)=O [Compound 1032]
61

State, in one line, measured Functional Activity rNPFF-2 I.A. % of Cc1ccc(S(=O)(=O)N[C@@H](CCCNC(=N)N)C(=O)N[C@@H](Cc2ccccc2)C(N)=O)cc1 [Compound 1007]
55

State, in one line, measured Functional Activity rNPFF-2 I.A. % of N=C(N)NCCC[C@H](NS(=O)(=O)c1cc(Cl)sc1Cl)C(=O)N[C@@H](Cc1ccccc1)C(N)=O [Compound 1020]
02

State, in one line, measured Functional Activity rNPFF-2 I.A. % of N=C(N)NCCC[C@H](NS(=O)(=O)c1cccc([N+](=O)[O-])c1)C(=O)N[C@@H](Cc1ccccc1)C(N)=O [Compound 1002]
89

State, in one line, measured Functional Activity rNPFF-2 I.A. % of N=C(N)NCCC[C@H](NS(=O)(=O)c1c(Cl)cccc1Cl)C(=O)N[C@@H](Cc1ccccc1)C(N)=O [Compound 1019]
45

State, in one line, measured Functional Activity rNPFF-2 I.A. % of COc1ccc(C)cc1S(=O)(=O)N[C@@H](CCCNC(=N)N)C(=O)N[C@@H](Cc1ccccc1)C(N)=O [Compound 2003]
52

State, in one line, measured Functional Activity rNPFF-2 I.A. % of N=C(N)NCCC[C@H](NS(=O)(=O)c1c(F)c(F)c(F)c(F)c1F)C(=O)N[C@@H](Cc1ccccc1)C(N)=O [Compound 1024]
43
